# Test system: PC-3 prostate
# assayProcedure: NCI tumour cell line growth inhibition, 48 h
reportedEndpoint: TGI

Tell me the measured TGI of COc1ccc2nc3cc(Cl)ccc3c(NCCCCCC(=O)NC(COc3cnc4c(ccc5cccnc54)c3)COc3cnc4c(ccc5cccnc54)c3)c2c1 , please.
26.8 µM

Recorded TGI for Cc1c2c(nn1-c1ccc(S(=O)(=O)NC(=S)Nc3ccccc3)cc1)-c1ccccc1CC2 , please?
> 50 µM

# lookup: TGI of Cn1ccnc1Sc1ccc(/C=N/NC(=O)c2ccccc2O)cc1[N+](=O)[O-]
> 100 µM

TGI lookup needed for CSc1c(C(=O)Nc2ccccc2)c(N)nn1-c1ccccc1 , thanks.
> 100 µM

What does the data say about its TGI? Entry: N#CC1=C2Sc3ccccc3N2[C@H](c2ccccc2)[C@H]2COC(=O)[C@@H]12
> 100 µM

Suppose we examine the molecule O=C(Nc1ccccc1)O/N=C(/CBr)c1ccccc1 ; what TGI value has been reported?
30.3 µM

If you can, please state the reported TGI value of COC1C(O)CC(OC2C(C)OC(Oc3cc(O)c4c(O)c5c(cc4c3)C[C@@H]([C@H](OC)C(=O)[C@@H](O)[C@@H](C)O)[C@H](OC3CC(OC4CC(OC6CC(C)(O)C(O)C(C)O6)C(O)C(C)O4)C(O)C(C)O3)C5=O)CC2OC(C)=O)OC1C (some centres undefined) .
> 100 µM

Tell me the measured TGI of COC(=O)CCCc1ccc2c(c1)CC1(C2)Cc2cc3c(cc2C1)CCCC3 , please.
> 100 µM

What value of TGI has been recorded for this entry: COc1cc2c(cc1OC)C(=O)/C(=C/c1cccc(OCC(=O)c3ccccc3)c1)C2
> 100 µM

Endpoint output: TGI of CCN(CC)Cc1nc2sc3c(c2c(=O)n1-c1ccccc1)CCCC3 . Value?
34 µM

Which TGI value belongs to Oc1ccc(/C=C\c2nnc(/C=C\c3ccc(O)c(O)c3)s2)cc1O ?
29.3 µM

Param item = COc1cc(/C(C#N)=C/c2ccc3c(c2OC)OCO3)cc2c1OCO2 ; retrieve measured TGI.
> 78.4 µM

Please look up its TGI: O=C(CCCCCCSc1nc(-c2ccccc2)cc(-c2ccc(Cl)cc2)n1)NO
10.5 µM

Endpoint output: TGI of COc1cccc(N2C(=O)C3c4[nH]c5ccccc5c4C4c5ccccc5CCC4C3C2=O)c1 (centres undefined) . Value?
> 10 µM

Need TGI, item O=C(CSc1nc2ccccc2[nH]1)Nc1ccc(-c2nc3ccccc3s2)c(Cl)c1
> 100 µM

Look up TGI for this molecule: Cc1ccc(C(=O)N(C2CCCCC2)C2CCCCC2)cc1N=NN(C)C
22.2 µM

Using the record for N#Cc1c(-c2nc3ccccc3s2)c(=O)oc2cc(O)ccc12 , report its TGI.
> 100 µM

Entry CC(=O)OC(Cc1cc(C=C(C(F)(F)F)C(F)(F)F)cc(C)n1)(C(F)(F)F)C(F)(F)F has what TGI?
5.34 µM

Field request: TGI | item: ClCc1cccc(Cn2cnc3c(Cl)ncnc32)c1
18.3 µM

----------
Record form. Attribute: TGI. Fill in for each entry.
# Tested on: OVCAR-3 ovarian
# assayProcedure: NCI tumour cell line growth inhibition, 48 h
Non-standard residues stand in square brackets, D forms with d. Residues, ends and D or L forms follow the SMILES beside them. *: point of attachment. ONb = O=[N+]([O-])c1ccc(CO*)cc1; AllylGly = C=CC[CH](N)C(=O)O; Boc = CC(C)(C)OC(=O)*

Using the record for c1ccc2c(-c3cnc(-c4c[nH]c5ccccc45)cn3)c[nH]c2c1 , report its TGI.
> 100 µM

// TGI lookup, key: C=CCC(NC(=O)OC(C)(C)C)C(=O)NC(CCC(=O)OCc1ccc([N+](=O)[O-])cc1)C(N)=O (centres undefined) (Boc-[AllylGly]-Glu(ONb)-NH2; configuration not given here)
90.1 µg/mL

TGI lookup needed for Cc1cnoc1NC1=CC(=O)C(=O)c2ccccc21 , thanks.
> 100 µM

Please look up its TGI: CCOC(=O)/C(=C\NCC(O)c1ccccc1)c1nc2ccccc2[nH]1 (centres undefined)
> 100 µM

For the compound shown here, C=CC[C@H]1[C@@H](O[Si](C)(C)C(C)(C)C)[C@H](n2ccc(=O)[nH]c2=O)O[C@@H]1CO[Si](C)(C)C(C)(C)C , give the reported TGI.
3.12 µM

What does the data say about its TGI? Entry: CC(=O)Oc1ccc(/C=C/C(=O)O[C@@H](C)[C@H](C)OC(=O)/C=C/c2ccc(OC(C)=O)c(OC(C)=O)c2)cc1OC(C)=O
51.6 µM

TGI for COc1cc2c(cc1C[N+](C)(C)CSc1ccccc1)-c1ccccc1CC2 ?
13 µM

Using the record for O=c1c2ccccc2[nH]c(=S)n1-c1ccc(Br)cc1 , report its TGI.
> 100 µM

# TGI lookup, item N=C(N)SCCON1C(=O)c2ccccc2C1=O
> 100 µM

// query TGI value for entry COc1ccc(N(C(=O)Nc2ccc(Cl)c(Cl)c2)c2ccccc2)cc1
> 10 µM

Item CSc1c(C(=O)Nc2ccccc2)c(N)nn1-c1ccccc1 has what recorded TGI?
> 100 µM

Fill in: TGI of CCC1C(=O)C[C@H]2[C@@H]3C(O)CC4=CC(=O)CC[C@]4(C)[C@H]3CC[C@]12C (some centres undefined) is ___
> 50 µM

Recorded TGI of CNC(P(=O)([O-])[O-])P(=O)([O-])[O-].N.N.[Pt+2] , please.
> 100 µM

Give its TGI value. Item: CCOc1cc2ncc(C#N)c(Nc3ccc(OCc4cccc(F)c4)c(Cl)c3)c2cc1NC(=O)CC1CCSS1 (centres undefined)
9.3 µM

----------
# Tested on: SNB-19 CNS
# assayProcedure: NCI tumour cell line growth inhibition, 48 h
reportedEndpoint: TGI

Using the record for COC(=O)c1cc(C)ccc1CC(Cc1cccc(C)c1)C(=O)OC (stereo not given) , report its TGI.
> 100 µM

Fill in the blank: the reported TGI of Brc1ccc(N=NN2CCCCC2)cc1 is ____.
> 100 µM

For CC(C)Oc1c(-c2c(OC(C)C)c(=O)c2=O)c(=O)c1=O , what is its reported TGI?
> 100 µM

Please report the recorded TGI for CC(=O)O/C=C(/C=C/OC(C)=O)C(C/C=C(\C)C#CC=C(C)C)OC(C)=O (stereo not given) .
> 100 µM

Please report the recorded TGI for CCOC(=O)/C(=C\NCC(O)c1ccccc1)c1nc2ccccc2[nH]1 (stereo not given) .
> 100 µM

Query: TGI; subject: COc1cccc(C2CC(C)(N3CCCC3)Oc3cc4c(cc32)OCO4)c1O (stereo not given)
> 100 µM

// query TGI value for entry O=C(c1ccc(Cl)cc1)c1ccc(OCC(=O)N2CCN(c3ccccc3)CC2)cc1
> 100 µM

Name the recorded TGI for O=c1c2ccccc2[nH]c(=S)n1-c1ccc(Br)cc1 .
> 100 µM

So what's the measured TGI for this one? O=C(Nc1ccccc1)O/N=C(/CBr)c1ccccc1
53.9 µM

Could you tell me which TGI is on file for N/N=C(\C(=O)Nc1c(Cl)cc([N+](=O)[O-])cc1Cl)C(c1cnc2ccc([N+](=O)[O-])cc2n1)[N+](=O)[O-] (stereo not given) ?
> 100 µM

What value of TGI has been reported for the following compound? COc1ccc(-c2nc3sc(C)cn3c2/C=C/C(=O)c2cc(OC)c(OC)c(OC)c2)cc1
> 100 µM

Dear colleague, I am looking for the recorded TGI of the following compound: CNC(=O)c1cc(OC2CCC(NC(=O)Nc3ccc(Cl)c(C(F)(F)F)c3)CC2)ccn1 (stereo not given)
32.2 µM

// returns reported TGI for input COc1cc(C2C=C(c3cccc(NC(C)=O)c3)Nc3ncnn32)cc(OC)c1OC (stereo not given)
> 100 µM

Name the recorded TGI for O=c1oc2cc(OS(=O)(=O)c3ccc(F)cc3)ccc2c2c1CCCCC2 .
> 100 µM

Which TGI is reported for this compound? Cc1ccc(C(=O)N(C2CCCCC2)C2CCCCC2)cc1N=NN(C)C
26.4 µM

----------
# System: SK-MEL-5 melanoma
# assayProcedure: NCI tumour cell line growth inhibition, 48 h; in the data active means GI50 below about 0.43 µM; inactive means the rest
Log the outcome using a class from 1 = active, 0 = inactive

Hi, do you know how Cc1c2c(nn1-c1ccc(S(=O)(=O)NC(=S)Nc3ccccc3)cc1)-c1ccccc1CC2 came out in this test?
0

Would you mind telling me which call this test gave COc1nc(N(C)O)nc(N(C)O)n1 ?
0

Recorded call for ClCc1cccc(Cn2cnc3c(Cl)ncnc32)c1 ?
0

Which outcome was entered for the molecule COc1ccc2c(c1)[nH]c(=O)c1c3cc(C)c(C)cc3cn21 in this test?
1

What is the recorded call for this molecule in the test? O=[N+]([O-])C1C(c2ccccc2)C12c1ccccc1-c1ccccc12 (stereo not given)
0

# lookup: test call for CCOC(=O)c1c2c(n3ccc(NC(=O)CCN4CCCC4)cc13)C(=O)c1ncccc1C2=O
0

Lab log entry: O=C(CSc1nc2ccccc2[nH]1)Nc1ccc(-c2nc3ccccc3s2)c(Cl)c1 — outcome as called in the assay?
0

Test call for this molecule, please: O=c1oc2cc(OS(=O)(=O)c3ccc(F)cc3)ccc2c2c1CCCCC2
0

Outcome logged for Cc1ccc2[nH]cc(-c3nc(-c4c[nH]c5ncccc45)cs3)c2c1 in this assay:
0

Kindly provide the recorded test outcome for the following molecule: C=C1CC2(OC1=O)C(=O)N(CCCCCCCN1C(=O)C3(CC(=C)C(=O)O3)c3ccccc31)c1ccccc12 (stereo not given)
0
